// provenance: patent US20210246166A1

Target: T1, Recombinant human MASP1 enzyme (fragment corresponding to amino acids 297-699, C-terminal His Tag) (human, UniProt P48740 297-699)
T1 sequence: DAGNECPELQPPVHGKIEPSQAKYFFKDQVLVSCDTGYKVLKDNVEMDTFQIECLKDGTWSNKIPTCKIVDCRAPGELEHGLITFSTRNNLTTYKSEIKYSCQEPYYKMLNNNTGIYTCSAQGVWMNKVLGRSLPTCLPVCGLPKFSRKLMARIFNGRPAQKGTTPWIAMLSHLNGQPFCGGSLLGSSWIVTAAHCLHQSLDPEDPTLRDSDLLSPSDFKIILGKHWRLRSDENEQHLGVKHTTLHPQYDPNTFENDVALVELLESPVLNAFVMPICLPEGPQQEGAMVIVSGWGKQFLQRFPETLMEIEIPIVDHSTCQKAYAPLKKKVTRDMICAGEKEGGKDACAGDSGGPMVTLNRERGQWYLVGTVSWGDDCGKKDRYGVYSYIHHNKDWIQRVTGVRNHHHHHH
Assay: cell-based or functional assay
Numbered stars: 1 amine (or outer) side, 2 acyl side, 3 side chain; on linkers, the order of the positions; unused ones are H or OH. Bridge positions count the residues as written; N and C are the ends. Square brackets hold non-standard residues; d marks the D form. Ends that are not written are not given here. 4‑Aminomethylphenylacetic acid = O=C(Cc1ccc(CN[*:1])cc1)[*:2]; NHCH2(1,3-C6H4)CH2CO = O=C(Cc1cccc(CN[*:1])c1)[*:2]; Oic = O=C(O)[C@@H]1C[C@@H]2CCCC[C@@H]2N1; PEG6 = NCCOCCOCCOCCOCCOCCOCCC(=O)O; Pen = CC(C)(S)[C@H](N)C(=O)O; Orn = NCCC[C@H](N)C(=O)O; Sar = CNCC(=O)O
Measured property: human MASP1 IC50 (nM)
Please give a number only; it is taken to be in nM.

// human MASP1 IC50 lookup, binder = [Sar]ICSRSLP[Oic]I[Pen]IP[4‑Aminomethylphenylacetic acid]-OH (disulfide 3-11; N-terminus assumed; SMILES CC[C@H](C)[C@H](NC(=O)CNC)C(=O)N[C@H]1CSSC(C)(C)[C@@H](C(=O)N[C@H](C(=O)N2CCC[C@H]2C(=O)NCc2ccc(CC(=O)O)cc2)[C@@H](C)CC)NC(=O)[C@H]([C@@H](C)CC)NC(=O)[C@@H]2C[C@@H]3CCCC[C@@H]3N2C(=O)[C@@H]2CCCN2C(=O)[C@H](CC(C)C)NC(=O)[C@H](CO)NC(=O)[C@H](CCCNC(=N)N)NC(=O)[C@H](CO)NC1=O) [((N-Me)G)-IC+SRSLP-(Oic)-I-(Pen)+IP-(4-Aminomethylphenylacetic acid)-OH] , result: 3.8

// human MASP1 IC50 lookup, binder = [Sar]ICSRSLP[Oic]I[Pen]IP[PEG6]-OH (disulfide 3-11; N-terminus assumed; SMILES CC[C@H](C)[C@H](NC(=O)CNC)C(=O)N[C@H]1CSSC(C)(C)[C@@H](C(=O)N[C@H](C(=O)N2CCC[C@H]2C(=O)NCCOCCOCCOCCOCCOCCOCCC(=O)O)[C@@H](C)CC)NC(=O)[C@H]([C@@H](C)CC)NC(=O)[C@@H]2C[C@@H]3CCCC[C@@H]3N2C(=O)[C@@H]2CCCN2C(=O)[C@H](CC(C)C)NC(=O)[C@H](CO)NC(=O)[C@H](CCCNC(=N)N)NC(=O)[C@H](CO)NC1=O) [((N-Me)G)-IC+SRSLP-(Oic)-I-(Pen)+IP-(PEG5(22 atoms))-OH] , result: 4

// human MASP1 IC50 lookup, binder = [Orn]ICSRSLP[Oic]I[Pen]IPD-OH (disulfide 3-11; N-terminus assumed; SMILES CC[C@H](C)[C@H](NC(=O)[C@@H](N)CCCN)C(=O)N[C@H]1CSSC(C)(C)[C@@H](C(=O)N[C@H](C(=O)N2CCC[C@H]2C(=O)N[C@@H](CC(=O)O)C(=O)O)[C@@H](C)CC)NC(=O)[C@H]([C@@H](C)CC)NC(=O)[C@@H]2C[C@@H]3CCCC[C@@H]3N2C(=O)[C@@H]2CCCN2C(=O)[C@H](CC(C)C)NC(=O)[C@H](CO)NC(=O)[C@H](CCCNC(=N)N)NC(=O)[C@H](CO)NC1=O) [(Orn)-IC+SRSLP-(Oic)-I-(Pen)+IPD-OH] , result: 1.9

// human MASP1 IC50 lookup, binder = [dA]ICSRSLP[Oic]I[Pen]IP[NHCH2(1,3-C6H4)CH2CO]-OH (disulfide 3-11; N-terminus assumed; SMILES CC[C@H](C)[C@H](NC(=O)[C@@H](C)N)C(=O)N[C@H]1CSSC(C)(C)[C@@H](C(=O)N[C@H](C(=O)N2CCC[C@H]2C(=O)NCc2cccc(CC(=O)O)c2)[C@@H](C)CC)NC(=O)[C@H]([C@@H](C)CC)NC(=O)[C@@H]2C[C@@H]3CCCC[C@@H]3N2C(=O)[C@@H]2CCCN2C(=O)[C@H](CC(C)C)NC(=O)[C@H](CO)NC(=O)[C@H](CCCNC(=N)N)NC(=O)[C@H](CO)NC1=O) [aIC+SRSLP-(Oic)-I-(Pen)-+IP-(3-Aminomethylphenylacetic acid)-OH] , result: 3.7
